Origin of measurements: PubChem BioAssay

Hi there, I'd appreciate the recorded remaining activity for every entry that follows.
- Tested on: Aerobactin synthetase IucA (Klebsiella pneumoniae)
- PROTOCOL_DETAILS: inhibition of K. pneumoniae IucA enzyme – biochemical, Tocris library, absorbance (AID 1345561);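 also: 100% = enzyme without compound and 0% = no enzyme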
- ASSAY_SETUP: purified IucA enzyme assay, absorbance (OD) read-out; active compounds read low;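 tested at 8 µM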
One number for each entry, in %.

compound="CC(C)C1C2CCC(C2)C1N (stereo unspecified)" scale_unit=% measured_result=119
compound="OC(c1ccccc1)C1CCN(CCc2ccccc2)CC1 (stereo unspecified)" scale_unit=% measured_result=96.8

I have 4 compounds here; please give me remaining activity for each one.
1. CCCc1c(OCCCOc2ccc(OCC(=O)O)cc2)ccc(CC=O)c1O
2. CC(C)[C@H](CO)Nc1nc(Nc2cc(N)cc(Cl)c2)c2ncn(C(C)C)c2n1
3. O=C(NCCN1CCCCC1)c1ccc(I)cc1
4. Cc1c(CC(C)(C)C(=O)O)n(Cc2ccc(Cl)cc2)c2ccc(F)cc12

117
103
103
112

I have 5 compounds here; please give me remaining activity for each one.
1. CN1C[C@H]2c3ccccc3Oc3ccc(Cl)cc3[C@@H]2C1 (racemic)
2. CCOC(=O)C1CSC(Cc2ccc(OCc3ccc([N+](=O)[O-])cc3)cc2)N1 (stereo unspecified)
3. Cc1noc(NS(=O)(=O)c2cccc3c(N(C)C)cccc23)c1C
4. O=C(c1ccc(F)cc1)C1CCN(CCCCc2ccccc2)CC1
5. CNC(=O)Oc1ccc2c(c1)C1(C)CCN(C)C1N2C (stereo unspecified)

1: 109; 2: 95.4; 3: 116; 4: 113; 5: 128
